Parameter fold change of Tryptamine concentration: see the listing below.
Test system: Ruminococcus gnavus DSM 108212
Assay: fold change of Tryptamine concentration vs plate DMSO controls (fold change (ratio)); higher = more amine produced, active = hit call of the paper (significant change in both replicates, either direction)
Conditions: incubation time: 27 h, anaerobic, 37 °C
Structures can show the parent of a compound that is named as a salt.
Form rule: numeric answer, no unit written next to it.

compound: O=C1[C@H]2CCCC[C@H]2C(=O)N1CCCCN1CCN(c2nsc3ccccc23)CC1 [Perospirone hydrochloride] (20 µM)
fold change of Tryptamine concentration: 0.767

# fold change of Tryptamine concentration lookup, item Nc1ccc(C(=O)NCC(=O)O)cc1 [Aminohippuric acid] (20 µM) 1.03

# fold change of Tryptamine concentration lookup, item CC(=O)N[C@@H](CS)C(=O)O [Acetylcysteine] (20 µM) 0.993

# fold change of Tryptamine concentration lookup, item Cc1nc2n(c(=O)c1CCN1CCC(c3noc4cc(F)ccc34)CC1)CCCC2O (configuration not stated) [Paliperidone] (20 µM) 0.966

# fold change of Tryptamine concentration lookup, item Nc1ccc(S(N)(=O)=O)cc1 [Sulfanilamide] (20 µM) 1.11

# fold change of Tryptamine concentration lookup, item CC(C)NCC(O)COc1cccc2[nH]ccc12 (configuration not stated) [Pindolol] (20 µM) 1.12
